target: KiSS-1 receptor (Rattus norvegicus, UniProt Q924U1); experiment: Displacement of radioligand from rat KISS1R transfected in CHO cells
Sequence (Q924U1 whole entry): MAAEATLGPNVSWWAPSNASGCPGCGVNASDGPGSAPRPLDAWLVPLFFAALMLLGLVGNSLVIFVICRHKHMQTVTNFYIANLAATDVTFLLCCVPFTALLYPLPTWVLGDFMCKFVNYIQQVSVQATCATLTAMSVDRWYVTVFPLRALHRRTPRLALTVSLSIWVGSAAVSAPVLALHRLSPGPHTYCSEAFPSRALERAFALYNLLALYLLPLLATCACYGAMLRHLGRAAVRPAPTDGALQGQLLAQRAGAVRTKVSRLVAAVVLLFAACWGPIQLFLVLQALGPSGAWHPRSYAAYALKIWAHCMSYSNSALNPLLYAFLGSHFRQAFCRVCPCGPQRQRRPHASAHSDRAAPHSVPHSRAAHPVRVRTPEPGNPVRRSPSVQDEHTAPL
Where a SMILES comes first, the peptide text is derived from it. [ ]: non-standard residue; d: D form. Arg(Me) = CNC(=N)NCCC[C@H](N)C(=O)O; d4Pal = N[C@H](Cc1ccncc1)C(=O)O; azaGly = NNC(=O)O
readout-kind: Ki

Completed entries (count: 3):
CNC(=N)NCCC[C@H](NC(=O)[C@H](CC(C)C)NC(=O)NNC(=O)[C@H](Cc1ccccc1)NC(=O)[C@@H](NC(=O)[C@H](CC(N)=O)NC(=O)[C@@H](Cc1ccncc1)NC(=O)[C@@H](Cc1ccc(O)cc1)NC(C)=O)[C@@H](C)O)C(=O)N[C@@H](Cc1c[nH]c2ccccc12)C(N)=O    0.17 nM
CNC(=N)NCCC[C@H](NC(=O)[C@H](CC(C)C)NC(=O)NNC(=O)[C@H](Cc1ccccc1)NC(=O)[C@H](CO)NC(=O)[C@H](CC(N)=O)NC(=O)[C@@H](Cc1ccncc1)NC(=O)[C@H](N)Cc1ccc(O)cc1)C(=O)N[C@@H](Cc1ccccc1)C(N)=O [KISS1-305] (H-[dY][d4Pal]NSF[azaGly]L[Arg(Me)]F-NH2)    0.14 nM
CNC(=N)NCCC[C@H](NC(=O)[C@H](CC(C)C)NC(=O)NNC(=O)[C@H](Cc1ccccc1)NC(=O)[C@H](CO)NC(=O)[C@H](CC(N)=O)NC(=O)[C@@H](Cc1c[nH]c2ccccc12)NC(=O)[C@H](N)Cc1ccc(O)cc1)C(=O)N[C@@H](Cc1c[nH]c2ccccc12)C(N)=O    0.077 nM

Next compound, Ki to be filled in.
Reported Ki for CNC(=N)NCCC[C@H](NC(=O)[C@H](CC(C)C)NC(=O)NNC(=O)[C@H](Cc1ccccc1)NC(=O)[C@H](CO)NC(=O)[C@H](C)NC(=O)[C@@H](Cc1ccncc1)NC(=O)[C@H](N)Cc1ccc(O)cc1)C(=O)N[C@@H](Cc1c[nH]c2ccccc12)C(N)=O was 3.6 nM

---

Exercise: for every item that follows, state its recorded Cmax.
assay: Cmax in Sprague-Dawley rat at 1 mg/kg, sc after 24 hrs by LC-MS/MS analysis; format: ADME, organism-based; parameters: dose 1 mg/kg, route subcutaneous; settings: in vivo
Where a SMILES comes first, the peptide text is derived from it. [ ]: non-standard residue; d: D form. Arg(Me) = CNC(=N)NCCC[C@H](N)C(=O)O; d4Pal = N[C@H](Cc1ccncc1)C(=O)O; azaGly = NNC(=O)O
Give bare numbers, in ng/mL.

Look up Cmax for the entries below, preserving their order.
1. CNC(=N)NCCC[C@H](NC(=O)[C@H](CC(C)C)NC(=O)NNC(=O)[C@H](Cc1ccccc1)NC(=O)[C@H](CO)NC(=O)[C@H](CC(N)=O)NC(=O)[C@@H](Cc1ccncc1)NC(=O)[C@H](N)Cc1ccc(O)cc1)C(=O)N[C@@H](Cc1ccccc1)C(N)=O [KISS1-305] (H-[dY][d4Pal]NSF[azaGly]L[Arg(Me)]F-NH2)
2. CNC(=N)NCCC[C@H](NC(=O)[C@H](CC(C)C)NC(=O)NNC(=O)[C@H](Cc1ccccc1)NC(=O)[C@@H](NC(=O)[C@H](CC(N)=O)NC(=O)[C@@H](Cc1c[nH]c2ccccc12)NC(=O)[C@@H](Cc1ccc(O)cc1)NC(C)=O)[C@@H](C)O)C(=O)N[C@@H](Cc1c[nH]c2ccccc12)C(N)=O (Ac-[dY][dW]NTF[azaGly]L[Arg(Me)]W-NH2)
3. CNC(=N)NCCC[C@H](NC(=O)[C@H](CC(C)C)NC(=O)NNC(=O)[C@H](Cc1ccccc1)NC(=O)[C@@H](NC(=O)[C@H](CC(N)=O)NC(=O)[C@@H](Cc1c[nH]c2ccccc12)NC(=O)[C@H](N)Cc1ccc(O)cc1)[C@@H](C)O)C(=O)N[C@@H](Cc1c[nH]c2ccccc12)C(N)=O
4. CNC(=N)NCCC[C@H](NC(=O)[C@H](CC(C)C)NC(=O)NNC(=O)[C@H](Cc1ccccc1)NC(=O)[C@@H](NC(=O)[C@H](CC(N)=O)NC(=O)[C@@H](Cc1c[nH]c2ccccc12)NC(=O)[C@@H](Cc1ccc(O)cc1)NC(C)=O)[C@@H](C)O)C(=O)N[C@@H](Cc1ccccc1)C(N)=O
5. CNC(=N)NCCC[C@H](NC(=O)[C@H](CC(C)C)NC(=O)NNC(=O)[C@H](Cc1ccccc1)NC(=O)[C@@H](NC(=O)[C@H](CC(N)=O)NC(=O)[C@@H](Cc1ccncc1)NC(=O)[C@@H](Cc1ccc(O)cc1)NC(C)=O)[C@@H](C)O)C(=O)N[C@@H](Cc1c[nH]c2ccccc12)C(N)=O

1: 145; 2: 100; 3: 47; 4: 114; 5: 90

---

experiment: AUC (0 to 24 hrs) in Sprague-Dawley rat at 1 mg/kg, sc after 24 hrs by LC-MS/MS analysis; format: ADME, organism-based; set-up: time < 24 hr, dose 1 mg/kg, route subcutaneous; details: plasma
Where a SMILES comes first, the peptide text is derived from it. [ ]: non-standard residue; d: D form. Arg(Me) = CNC(=N)NCCC[C@H](N)C(=O)O; d4Pal = N[C@H](Cc1ccncc1)C(=O)O; azaGly = NNC(=O)O
Exercise: for every item that follows, state its recorded AUC(0-t) at 24 h.
Numbers only, in ng·h/mL.

Completed entries (count: 4):
CNC(=N)NCCC[C@H](NC(=O)[C@H](CC(C)C)NC(=O)NNC(=O)[C@H](Cc1ccccc1)NC(=O)[C@@H](NC(=O)[C@H](CC(N)=O)NC(=O)[C@@H](Cc1ccncc1)NC(=O)[C@@H](Cc1ccc(O)cc1)NC(C)=O)[C@@H](C)O)C(=O)N[C@@H](Cc1c[nH]c2ccccc12)C(N)=O    152
CNC(=N)NCCC[C@H](NC(=O)[C@H](CC(C)C)NC(=O)NNC(=O)[C@H](Cc1ccccc1)NC(=O)[C@@H](NC(=O)[C@H](CC(N)=O)NC(=O)[C@@H](Cc1c[nH]c2ccccc12)NC(=O)[C@H](N)Cc1ccc(O)cc1)[C@@H](C)O)C(=O)N[C@@H](Cc1c[nH]c2ccccc12)C(N)=O    46
CNC(=N)NCCC[C@H](NC(=O)[C@H](CC(C)C)NC(=O)NNC(=O)[C@H](Cc1ccccc1)NC(=O)[C@H](CO)NC(=O)[C@H](CC(N)=O)NC(=O)[C@@H](Cc1ccncc1)NC(=O)[C@H](N)Cc1ccc(O)cc1)C(=O)N[C@@H](Cc1ccccc1)C(N)=O [KISS1-305] (H-[dY][d4Pal]NSF[azaGly]L[Arg(Me)]F-NH2)    96
CNC(=N)NCCC[C@H](NC(=O)[C@H](CC(C)C)NC(=O)NNC(=O)[C@H](Cc1ccccc1)NC(=O)[C@@H](NC(=O)[C@H](CC(N)=O)NC(=O)[C@@H](Cc1c[nH]c2ccccc12)NC(=O)[C@@H](Cc1ccc(O)cc1)NC(C)=O)[C@@H](C)O)C(=O)N[C@@H](Cc1c[nH]c2ccccc12)C(N)=O (Ac-[dY][dW]NTF[azaGly]L[Arg(Me)]W-NH2)    115

Reported AUC(0-t) at 24 h for CNC(=N)NCCC[C@H](NC(=O)[C@H](CC(C)C)NC(=O)NNC(=O)[C@H](Cc1ccccc1)NC(=O)[C@@H](NC(=O)[C@H](CC(N)=O)NC(=O)[C@@H](Cc1c[nH]c2ccccc12)NC(=O)[C@@H](Cc1ccc(O)cc1)NC(C)=O)[C@@H](C)O)C(=O)N[C@@H](Cc1ccccc1)C(N)=O was 144

---

experiment: Stability of the compound in aqueous solution (JP1) assessed as residual ratio at pH 1.2 up to 1 week by HPLC analysis relative to initial level; format: physicochemical
Where a SMILES comes first, the peptide text is derived from it. [ ]: non-standard residue; d: D form. Arg(Me) = CNC(=N)NCCC[C@H](N)C(=O)O; d4Pal = N[C@H](Cc1ccncc1)C(=O)O; azaGly = NNC(=O)O
readout-kind: remaining at 168 h (%)
Answers are plain numbers, in %.

CNC(=N)NCCC[C@H](NC(=O)[C@H](CC(C)C)NC(=O)NNC(=O)[C@H](Cc1ccccc1)NC(=O)[C@@H](NC(=O)[C@H](CC(N)=O)NC(=O)[C@@H](Cc1c[nH]c2ccccc12)NC(=O)[C@@H](Cc1ccc(O)cc1)NC(C)=O)[C@@H](C)O)C(=O)N[C@@H](Cc1c[nH]c2ccccc12)C(N)=O (Ac-[dY][dW]NTF[azaGly]L[Arg(Me)]W-NH2)    55.6
CNC(=N)NCCC[C@H](NC(=O)[C@H](CC(C)C)NC(=O)NNC(=O)[C@H](Cc1ccccc1)NC(=O)[C@H](CO)NC(=O)[C@H](CC(N)=O)NC(=O)[C@@H](Cc1ccncc1)NC(=O)[C@H](N)Cc1ccc(O)cc1)C(=O)N[C@@H](Cc1ccccc1)C(N)=O [KISS1-305] (H-[dY][d4Pal]NSF[azaGly]L[Arg(Me)]F-NH2)    60.3

Next compound, remaining at 168 h to be filled in.
Reported remaining at 168 h for CNC(=N)NCCC[C@H](NC(=O)[C@H](CC(C)C)NC(=O)NNC(=O)[C@H](Cc1ccccc1)NC(=O)[C@H](CO)NC(=O)[C@H](CC(N)=O)NC(=O)[C@@H](Cc1c[nH]c2ccccc12)NC(=O)[C@H](N)Cc1ccc(O)cc1)C(=O)N[C@@H](Cc1c[nH]c2ccccc12)C(N)=O was 60.8
